# assayedSystem: T1, human GIP receptor (human, UniProt P48546 22-466)
# T1 sequence (looked up): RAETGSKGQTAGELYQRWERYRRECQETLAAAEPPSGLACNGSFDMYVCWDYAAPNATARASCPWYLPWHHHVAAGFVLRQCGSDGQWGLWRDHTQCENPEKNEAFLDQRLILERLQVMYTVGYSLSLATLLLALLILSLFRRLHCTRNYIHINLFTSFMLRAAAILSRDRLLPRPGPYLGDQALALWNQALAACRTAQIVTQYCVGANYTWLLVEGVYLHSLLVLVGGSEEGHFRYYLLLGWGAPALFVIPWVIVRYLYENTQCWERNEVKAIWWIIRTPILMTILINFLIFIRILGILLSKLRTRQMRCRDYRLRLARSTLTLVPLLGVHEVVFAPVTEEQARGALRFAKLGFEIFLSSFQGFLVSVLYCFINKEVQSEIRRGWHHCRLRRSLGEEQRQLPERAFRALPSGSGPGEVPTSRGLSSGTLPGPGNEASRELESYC
# assaySummary: cell-based or functional assay
Positions of bridges follow the written chain, without caps; N, C: chain ends. Non-standard residues stand in square brackets, D forms with d. No end group written: not given here. *: point of attachment. Acetyl(2-(4-imidazolyl)) = O=C(Cc1c[nH]cn1)*; Aib = CC(C)(N)C(=O)O
Mark each entry 1 if its In vitro activity (%) compared with native peptide: vs GIP sits below 20%, and 0 for all others.

{"binder": "{Acetyl(2-(4-imidazolyl))}-[Aib]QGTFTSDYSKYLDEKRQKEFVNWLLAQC (bridge 15-19; not fully specified) [triple agonist of SEQ ID NO: 86]", "assignedLabel": 1}

Input line: Check if In vitro activity (%) compared with native peptide: vs GIP falls below 20% for Y[Aib]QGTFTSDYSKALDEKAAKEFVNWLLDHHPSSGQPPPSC (bridge 16-20; not fully specified) [triple agonist of SEQ ID NO: 98] .
Output line: 0

Input line: Check if In vitro activity (%) compared with native peptide: vs GIP falls below 20% for {Acetyl(2-(4-imidazolyl))}-[Aib]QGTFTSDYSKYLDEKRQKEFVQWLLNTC (bridge 15-19; not fully specified) [triple agonist of SEQ ID NO: 81] .
Output line: 1

Input line: Check if In vitro activity (%) compared with native peptide: vs GIP falls below 20% for Y[Aib]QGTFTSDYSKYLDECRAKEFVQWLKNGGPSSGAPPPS (bridge 16-20) [triple agonist of SEQ ID NO: 24] .
Output line: 1

Input line: Check if In vitro activity (%) compared with native peptide: vs GIP falls below 20% for H[Aib]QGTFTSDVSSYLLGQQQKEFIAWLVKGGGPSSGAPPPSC (not fully specified) [triple agonist of SEQ ID NO: 5] .
Output line: 1
